# TARGET OR TEST SYSTEM: recombinant human Lp-PLA2 (Homo sapiens, UniProt Q13093)
# Sequence (Q13093 22-441): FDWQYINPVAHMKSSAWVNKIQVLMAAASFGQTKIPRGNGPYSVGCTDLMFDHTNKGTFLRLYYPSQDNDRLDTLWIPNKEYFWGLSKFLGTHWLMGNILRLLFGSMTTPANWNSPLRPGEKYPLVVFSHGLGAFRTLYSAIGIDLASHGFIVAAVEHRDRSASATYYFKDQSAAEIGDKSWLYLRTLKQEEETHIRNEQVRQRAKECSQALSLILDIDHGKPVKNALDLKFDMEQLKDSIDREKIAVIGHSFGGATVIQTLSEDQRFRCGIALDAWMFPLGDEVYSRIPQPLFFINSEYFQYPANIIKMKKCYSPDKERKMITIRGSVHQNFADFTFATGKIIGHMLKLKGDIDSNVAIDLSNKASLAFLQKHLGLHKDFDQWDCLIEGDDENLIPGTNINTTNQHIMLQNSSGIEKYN
# EXPERIMENTAL PROTOCOL: (1a) PED6 assay, recombinant human Lp-PLA2 (rhLp-PLA2)
# Type: biochemical
# CONDITION DETAILS: Examples 1-167 and 413-430 were tested here, one experiment or average of multiple experiments, read-out: rhLp-PLA2 (pIC50) (converted)
PROPERTY LABEL: IC50

O=c1nc(OCc2cc(F)c(OC3(CCF)CC3)c(F)c2)cc2n1C[C@@H]1CCOCN21
≤ 100 nM

Exercise: Which IC50 reading was recorded for the compound Cn1cc(Oc2c(F)cc(COc3cc4n(c(=O)n3)C[C@@H]3COCN43)cc2F)cn1 ?
Key: ≤ 100 nM

Exercise: Moving on to the next compound: O=c1nc(OCc2ccc(Oc3ccnc(C(F)(F)F)c3)c(F)c2)cc2n1C[C@@H]1CCCCN21
Key: ≤ 1 nM

Exercise: Moving on to the next compound: Cn1cc(Oc2c(F)cc(COc3cc4n(c(=O)n3)CC3CCCN43)cc2F)cn1 (centres unmarked)
Key: ≤ 100 nM
